The values you see were collected from patent US8912186B2.

# test-system: PKCζ (Homo sapiens, UniProt Q05513)
# Sequence (Q05513 1-592): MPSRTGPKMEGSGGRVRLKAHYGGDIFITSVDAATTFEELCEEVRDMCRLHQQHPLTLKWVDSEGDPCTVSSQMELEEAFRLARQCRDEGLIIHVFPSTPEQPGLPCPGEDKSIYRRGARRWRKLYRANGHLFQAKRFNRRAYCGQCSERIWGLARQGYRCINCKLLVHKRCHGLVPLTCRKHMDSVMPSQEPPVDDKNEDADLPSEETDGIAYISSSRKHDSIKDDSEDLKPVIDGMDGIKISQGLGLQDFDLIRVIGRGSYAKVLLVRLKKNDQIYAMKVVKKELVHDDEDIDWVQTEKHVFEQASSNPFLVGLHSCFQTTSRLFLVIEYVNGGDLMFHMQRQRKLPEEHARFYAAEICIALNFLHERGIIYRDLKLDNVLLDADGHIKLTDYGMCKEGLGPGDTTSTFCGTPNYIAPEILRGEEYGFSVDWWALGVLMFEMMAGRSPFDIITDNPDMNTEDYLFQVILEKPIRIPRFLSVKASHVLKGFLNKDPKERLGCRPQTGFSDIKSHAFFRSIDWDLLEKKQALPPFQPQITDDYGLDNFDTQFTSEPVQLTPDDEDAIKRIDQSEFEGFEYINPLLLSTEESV
# test-details: cell-free kinase activity assay
# Assay type: biochemical
# assay-setup: 200 μM compound; DMSO control set 100%; read-out: percent of catalytic activity of the Kinase in the presence of compound as compared to the solvent control (DMSO): PKCζ
Exercise: for every item that follows, state its recorded remaining activity at 200 µM.
Numbers only, in %.

compound | test-system | remaining activity at 200 µM, %
O=C(O)/C=C(\CCc1ccc(Cl)cc1)c1ccccc1F | PKCζ (Homo sapiens, UniProt Q05513) | 0
O=C(O)CC(Cc1nc2cc(Cl)c(Cl)cc2[nH]1)c1ccccc1 (centres unmarked) | PKCζ (Homo sapiens, UniProt Q05513) | 50
O=C(O)CC(Cc1nc2cc(Cl)ccc2[nH]1)c1ccc(Cl)cc1 (centres unmarked) | PKCζ (Homo sapiens, UniProt Q05513) | 30
O=C(O)/C=C1\c2ccccc2CC1Cc1ccc(Cl)cc1 (centres unmarked) | PKCζ (Homo sapiens, UniProt Q05513) | 2
O=C(O)/C=C(/c1ccccc1)c1cc2cc(Cl)ccc2s1 | PKCζ (Homo sapiens, UniProt Q05513) | 0

Query compound follows.
// "O=C(O)/C=C(/CCc1cccc(Cl)c1)c1ccccc1" : remaining activity at 200 µM value = 3

====

# test-system: PKCζ (Homo sapiens)
# Sequence (Q05513 1-592): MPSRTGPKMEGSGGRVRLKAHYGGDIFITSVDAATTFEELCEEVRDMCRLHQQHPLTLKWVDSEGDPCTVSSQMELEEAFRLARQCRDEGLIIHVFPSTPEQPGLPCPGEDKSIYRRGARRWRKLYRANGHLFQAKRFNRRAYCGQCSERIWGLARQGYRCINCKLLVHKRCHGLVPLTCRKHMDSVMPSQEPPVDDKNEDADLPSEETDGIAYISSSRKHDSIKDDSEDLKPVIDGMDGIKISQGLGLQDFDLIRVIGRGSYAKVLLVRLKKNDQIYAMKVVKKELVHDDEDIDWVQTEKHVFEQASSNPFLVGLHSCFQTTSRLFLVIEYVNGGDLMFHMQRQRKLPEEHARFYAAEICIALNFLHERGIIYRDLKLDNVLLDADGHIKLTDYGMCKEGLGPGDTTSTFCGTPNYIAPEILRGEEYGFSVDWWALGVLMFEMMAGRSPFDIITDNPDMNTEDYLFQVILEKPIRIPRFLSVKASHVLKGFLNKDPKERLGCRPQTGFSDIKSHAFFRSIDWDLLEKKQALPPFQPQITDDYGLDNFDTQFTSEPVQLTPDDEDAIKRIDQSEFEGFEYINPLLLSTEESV
# test-details: cell-free kinase activity assay
# Format: biochemical
# assay-setup: 50 μM compound; DMSO control set 100%; read-out: percent of catalytic activity of the Kinase in the presence of compound as compared to the solvent control (DMSO): PKCζ
result-type: remaining activity at 50 µM

compound | remaining activity at 50 µM
O=C(O)/C=C(/c1ccccc1)c1cc2cc(Cl)ccc2s1 [PS 118] | 10 to 20%
O=C(O)/C=C(/CCc1cccc(Cl)c1)c1ccccc1 [PS 87] | 45%

// O=C(O)/C=C(/CCc1ccc(C(F)(F)F)cc1)c1ccccc1 [PS-T5] : remaining activity at 50 µM value = ~0%
